measured.target: T1, MITF_(ΔThr-rich) (UniProt O75030-9 289-419, Δ334–345)
T1 construct: numbers count on: the MITF-M isoform; The methods print Δ334–354; the legend, the results and the canonical numbers (Δ441–452) give Δ334–345; also called Δ334–345; deletion of the threonine-rich region; source: E. coli BL21 (DE3), purified (Ni-NTA, TEV cleavage, Q-Sepharose)
T1 sequence (looked up): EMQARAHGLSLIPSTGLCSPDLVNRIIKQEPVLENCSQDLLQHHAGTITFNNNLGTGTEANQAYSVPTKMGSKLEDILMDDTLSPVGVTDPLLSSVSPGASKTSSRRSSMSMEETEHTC
method.description: ITC; 400 µM TAZ1 or TAZ2 in the syringe injected into 16–30 µM MITF construct in the cell; 20 mM TRIS pH 8, 25 mM NaCl, 5 mM βME, 10 µM ZnCl2; 30 °C; single-binding-site fit; duplicate
run.conditions: both partners purified
quantity.kind: pKd
Give bare numbers, as −log10 of the molar value.

Query: Please look at this binder and report its pKd: TAZ2 domain of CBP/p300 (domain or fragment) GDSRRLSIQRCIQSLVHACQCRNANCSLPSCQKMKRVVQHTKGCKRKTNGGCPICKQLIALCCYHAKHCQENKCPVPFCLNI
Result: 6.39
